# PROTOCOL_DESCRIPTION: antimalarial activity against Dd2 strain (AID 2302);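 note: 0% = DMSO untreated growth and 100% = chloroquine plus artemisinin killed control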
# PROTOCOL_CONDITIONS: P. falciparum Dd2 in RBCs, LDH growth readout, 72 h; at 2 µM
Active and inactive are the calls of the source.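 Rule for the calls: active = growth inhibition above 50% at the single 2 µM test dose, taken to imply half-maximal potency below 2 µM; inactive = the rest.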
Classes used: label 1 = active, label 0 = inactive

COMPOUND: CCCc1ccccc1Nc1nc(C)cc(N(CC)CCCN2CCCCC2)n1
ASSIGNED_LABEL: label 0
//
COMPOUND: O=c1c(Br)c(C(F)(F)F)[nH]c2ccc(Oc3ccccc3)cc12
ASSIGNED_LABEL: label 0
//
COMPOUND: CCc1cn2c3c(cc(C(=O)N[C@@H](Cc4cccc(Cl)c4)[C@H](O)CNC4CCOCC4)cc13)N(C)S(=O)(=O)CC2
ASSIGNED_LABEL: label 1
//
COMPOUND: Cc1cc(NN=Cc2ccccc2Cl)c2ccccc2n1
ASSIGNED_LABEL: label 0
//
COMPOUND: COc1ccccc1C1CCN(C2CCC(NC(=O)/C=C/c3ccc(OC(F)(F)F)cc3)CC2)CC1 (stereo not drawn)
ASSIGNED_LABEL: label 0
//
COMPOUND: Cc1oc(-c2cccc(Oc3ccccc3)c2)nc1CN(Cc1cnn(C)c1)C(C)C
ASSIGNED_LABEL: label 1
//
COMPOUND: CC(=O)N1Cc2ccccc2C1=O
ASSIGNED_LABEL: label 0
//
COMPOUND: Cc1cc(C=C2SC(=Nc3ccccc3)N(C3CCCC3)C2=O)c(C)n1-c1ccc(Cl)cc1
ASSIGNED_LABEL: label 1
//
COMPOUND: O=C(Nc1cccc(-c2ccc(-c3nc4ccc(F)cc4[nH]3)cc2)c1)Nc1ccc(Cl)c(Cl)c1
ASSIGNED_LABEL: label 0
//
COMPOUND: Cc1cc(Nc2ccc(OCc3ccccc3Cl)cc2)c2cc(Cl)ccc2n1
ASSIGNED_LABEL: label 1
//
COMPOUND: Cc1cc(N[C@@H](Cc2ccccc2)C(=O)NCCc2ccccc2)nc(NCCOc2ccccc2)n1
ASSIGNED_LABEL: label 0
//
COMPOUND: Clc1ccc2nnc(-c3c(Cl)cccc3Cl)n2n1
ASSIGNED_LABEL: label 1
//
COMPOUND: CCCCCCN1CCCN(Cc2ccc(C(=O)Nc3ccc(C(C)C)cc3)cc2)CC1
ASSIGNED_LABEL: label 1
